Assayed Target: human NTPDase3 (Homo sapiens, UniProt O75355)
Sequence (O75355 1-529): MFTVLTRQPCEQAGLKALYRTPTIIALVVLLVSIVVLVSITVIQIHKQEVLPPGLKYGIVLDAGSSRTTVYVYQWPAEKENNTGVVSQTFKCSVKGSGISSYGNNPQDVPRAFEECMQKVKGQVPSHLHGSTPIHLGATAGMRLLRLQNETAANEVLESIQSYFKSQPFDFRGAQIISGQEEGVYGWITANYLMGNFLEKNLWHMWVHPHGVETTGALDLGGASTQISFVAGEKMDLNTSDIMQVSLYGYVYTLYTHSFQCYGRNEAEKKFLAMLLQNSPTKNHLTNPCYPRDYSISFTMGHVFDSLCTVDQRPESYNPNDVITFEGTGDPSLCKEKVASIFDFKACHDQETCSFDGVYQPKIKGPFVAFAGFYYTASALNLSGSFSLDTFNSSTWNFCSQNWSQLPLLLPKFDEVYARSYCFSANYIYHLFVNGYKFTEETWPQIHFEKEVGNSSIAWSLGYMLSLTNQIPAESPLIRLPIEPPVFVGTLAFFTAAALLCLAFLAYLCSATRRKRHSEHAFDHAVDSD
Assay Remarks: NTPDase inhibition assay by capillary electrophoresis (CE), NTPDase3
Assay type: biochemical
Settings: CE method, ATP 320 μM, Km 75 μM, read-out: NTPDase3 Ki [μM] ± SEM
Test Readout: Ki

- Compound: "CCOP(=O)(Cc1ccc(NC(=O)CCCNC(=O)[C@H]2O[C@@H](n3cnc4c(N)ncnc43)C(O)C2O)cc1)OCC (stereo in doubt)"
  Ki: "> 200 µM"
- Compound: "CCOP(=O)(Cc1ccc(NC(=O)CNC(=O)[C@H]2O[C@@H](n3cnc4c(N)ncnc43)C(O)C2O)cc1)OCC (stereo in doubt)"
  Ki: "> 200 µM"

In the following, a different compound is considered.
The compound CCOP(=O)(CNC(=O)CNC(=O)[C@H]1O[C@@H](n2ccc(=O)[nH]c2=O)C(O)C1O)OCC (stereo in doubt) on human NTPDase3 (Homo sapiens, UniProt O75355): Ki was > 200 µM
